Every entry's value here was drawn from patent US12030897B2.

- protocolDescription: Concentration of Example 4 in plasma, tumor tissue and brain tissue (NCI-N87 model, day 21)
- Format: in vivo, BALB/c nude mice
- conditionSummary: BALB/c nude, mouse, tumor tissue, 100 mg/kg; day 21, 1 h after last administration; read-out: Drug concentration, tumor tissue
endpoint: concentration at 1 h (µM)
The response must be a number in µM with no trailing unit.

I am curious: what concentration at 1 h value has been reported for Cc1cc(Nc2ncnn3ccc(CN4CCC(N)CC4)c23)ccc1Oc1ccn2ncnc2c1 ? 11.2

----------
- targetOrTestSystem: UniProt P04626
Mark t only for IC50 values smaller than 10 nM; exact matches and larger values are f.

Cc1cc(Nc2ncnn3ccc(CN4CCC(N)CC4)c23)ccc1Oc1ccn2ncnc2c1 f
COCCNC1CCN(Cc2ccn3ncnc(Nc4ccc(Oc5ccn6ncnc6c5)c(C)c4)c23)CC1 t
Cc1cc(Nc2ncnn3ccc(CN4[C@@H]5CC[C@H]4C[C@H](O)C5)c23)ccc1Oc1ccn2ncnc2c1 f
COCC1(N)CCN(Cc2ccn3ncnc(Nc4ccc(Oc5ccn6ncnc6c5)c(C)c4)c23)CC1 t
Cc1cc(Nc2ncnn3ccc(CN4CCNCC4)c23)ccc1Oc1ccn2ncnc2c1 f

Here is another compound to look at.
Here's an entry: Cc1c(Oc2ccn3ncnc3c2)ccc(Nc2ncnn3ccc(CN4CCC(N)CC4)c23)c1F . Is its IC50 below 10 nM? t

----------
- targetOrTestSystem: CYP1A2 (Homo sapiens (Human), UniProt P05177)
- Sequence (P05177 whole entry): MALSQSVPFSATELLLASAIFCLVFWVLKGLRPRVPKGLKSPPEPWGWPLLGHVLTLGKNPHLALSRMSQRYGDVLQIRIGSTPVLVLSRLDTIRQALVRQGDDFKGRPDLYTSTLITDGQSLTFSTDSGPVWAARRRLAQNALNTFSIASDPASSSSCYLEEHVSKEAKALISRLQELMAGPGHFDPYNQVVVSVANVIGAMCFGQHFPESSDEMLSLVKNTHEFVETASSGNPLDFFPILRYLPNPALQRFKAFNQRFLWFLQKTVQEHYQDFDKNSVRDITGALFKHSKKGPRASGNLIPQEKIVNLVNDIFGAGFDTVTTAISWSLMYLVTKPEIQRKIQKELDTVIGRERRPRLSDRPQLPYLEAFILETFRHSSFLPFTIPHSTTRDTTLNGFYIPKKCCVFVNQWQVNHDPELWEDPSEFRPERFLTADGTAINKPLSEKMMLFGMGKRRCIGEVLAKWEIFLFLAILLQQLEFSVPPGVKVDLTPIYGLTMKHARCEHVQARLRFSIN
- Type: in vitro ADME
- conditionSummary: microsomes
endpoint: IC50

I am curious: what IC50 value has been reported for Cc1cc(Nc2ncnn3ccc(CN4CCC(N)CC4)c23)ccc1Oc1ccn2ncnc2c1 [Example 4] ? > 50 µM

----------
- targetOrTestSystem: HER2 (ErbB2) (Homo sapiens (Human))
- Sequence (P04626 23-1255): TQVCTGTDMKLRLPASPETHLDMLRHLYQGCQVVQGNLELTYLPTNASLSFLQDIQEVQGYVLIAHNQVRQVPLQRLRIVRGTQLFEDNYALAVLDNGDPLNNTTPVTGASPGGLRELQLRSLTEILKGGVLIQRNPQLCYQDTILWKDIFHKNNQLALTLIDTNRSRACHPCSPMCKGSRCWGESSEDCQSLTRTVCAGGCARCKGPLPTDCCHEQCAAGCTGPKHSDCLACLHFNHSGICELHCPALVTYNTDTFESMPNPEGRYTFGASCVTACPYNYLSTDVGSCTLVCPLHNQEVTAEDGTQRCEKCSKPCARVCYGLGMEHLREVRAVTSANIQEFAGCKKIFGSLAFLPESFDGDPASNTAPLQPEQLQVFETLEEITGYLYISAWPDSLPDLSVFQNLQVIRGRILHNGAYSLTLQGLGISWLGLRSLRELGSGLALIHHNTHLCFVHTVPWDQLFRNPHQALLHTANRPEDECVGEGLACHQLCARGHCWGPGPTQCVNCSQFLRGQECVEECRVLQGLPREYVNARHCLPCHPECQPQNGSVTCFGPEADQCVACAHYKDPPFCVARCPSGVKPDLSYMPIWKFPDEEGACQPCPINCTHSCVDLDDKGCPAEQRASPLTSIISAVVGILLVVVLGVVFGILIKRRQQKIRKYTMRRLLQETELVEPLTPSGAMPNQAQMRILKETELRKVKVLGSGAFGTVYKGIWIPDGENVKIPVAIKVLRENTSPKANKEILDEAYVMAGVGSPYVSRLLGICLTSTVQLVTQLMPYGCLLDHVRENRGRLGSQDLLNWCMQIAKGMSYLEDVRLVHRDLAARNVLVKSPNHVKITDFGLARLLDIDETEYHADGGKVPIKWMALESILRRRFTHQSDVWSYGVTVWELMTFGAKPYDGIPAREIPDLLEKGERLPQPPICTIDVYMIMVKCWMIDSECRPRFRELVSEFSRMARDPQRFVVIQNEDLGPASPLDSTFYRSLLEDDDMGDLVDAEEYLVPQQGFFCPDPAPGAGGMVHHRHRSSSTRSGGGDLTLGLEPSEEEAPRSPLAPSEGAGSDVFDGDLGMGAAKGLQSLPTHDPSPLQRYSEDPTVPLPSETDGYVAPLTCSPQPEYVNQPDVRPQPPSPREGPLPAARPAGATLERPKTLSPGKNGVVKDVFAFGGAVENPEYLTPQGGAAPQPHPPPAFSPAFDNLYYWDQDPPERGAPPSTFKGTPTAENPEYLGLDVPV
# key: entry, value: IC50
The response must be a number in nM with no trailing unit.

Worked examples follow.
compound	targetOrTestSystem	observedMeasurement
Cc1cc(Nc2ncnn3ccc(CN4CC[C@H](N)[C@@H](F)C4)c23)ccc1Oc1ccn2ncnc2c1 [Example 23]	HER2 (ErbB2) (Homo sapiens (Human))	2
Cc1cc(Nc2ncnn3ccc(CN4CC[C@H](N)[C@@H](F)C4)c23)ccc1Oc1ccn2ncnc2c1 [Example 21]	HER2 (ErbB2) (Homo sapiens (Human))	4
CO[C@H]1CN(Cc2ccn3ncnc(Nc4ccc(Oc5ccn6ncnc6c5)c(C)c4)c23)CC[C@@H]1N [Example 25]	HER2 (ErbB2) (Homo sapiens (Human))	2

// switching to the query compound
Form field - read-out: IC50; system: HER2 (ErbB2) (Homo sapiens (Human)); submitted item: NC1CCN(Cc2ccn3ncnc(Nc4ccc(Oc5ccn6ncnc6c5)c(C(F)(F)F)c4)c23)CC1 [Example 30] 14

----------
- protocolDescription: Pharmacokinetic properties in mice
- Assay type: in vivo
- conditionSummary: female, Balb/c; mouse plasma, PO 10 mg/kg
endpoint: AUC(0-t) (µM·h)
The response must be a number in µM·h with no trailing unit.

I am curious: what AUC(0-t) value has been reported for Cc1cc(Nc2ncnn3ccc(CN4CCC(N)CC4)c23)ccc1Oc1ccn2ncnc2c1 ? 4.28

----------
- protocolDescription: Pharmacokinetic properties in mice
- Type: in vivo
- conditionSummary: female, Balb/c; mouse plasma, PO 2 mg/kg
endpoint: half-life

I am curious: what half-life value has been reported for Cc1cc(Nc2ncnn3ccc(CN4CCC(N)CC4)c23)ccc1Oc1ccn2ncnc2c1 ? 1.37 h

----------
- protocolDescription: Pharmacokinetic properties in rats
- Type: in vivo
- conditionSummary: male, SD; rat plasma, PO 50 mg/kg
endpoint: Tmax (h)
The response must be a number in h with no trailing unit.

I am curious: what Tmax value has been reported for Cc1cc(Nc2ncnn3ccc(CN4CCC(N)CC4)c23)ccc1Oc1ccn2ncnc2c1 ? 3.33

----------
- protocolDescription: Pharmacokinetic properties in mice
- Format: in vivo
- conditionSummary: female, Balb/c, plasma; mouse, IV 2 mg/kg; read-out: Vdss
- Experimental: The tested compound was dissolved in 10% DMSO/45% PEG400/45% water, vortexed and sonicated to prepare a clear solution with the corresponding concentration, which was filtered through a millipore filter for use. […] The drug concentration was analyzed by the LC-MS/MS method, and the pharmacokinetic parameters were calculated by the Phoenix WinNonlin software (Pharsight, USA).
endpoint: Vd (L/kg)
The response must be a number in L/kg with no trailing unit.

I am curious: what Vd value has been reported for Cc1cc(Nc2ncnn3ccc(CN4CCC(N)CC4)c23)ccc1Oc1ccn2ncnc2c1 [Example 4] ? 2.81

----------
- protocolDescription: Pharmacokinetic properties in mice
- Assay type: in vivo
- conditionSummary: female, Balb/c; mouse plasma, PO 10 mg/kg
endpoint: Cmax (nM)
The response must be a number in nM with no trailing unit.

I am curious: what Cmax value has been reported for Cc1cc(Nc2ncnn3ccc(CN4CCC(N)CC4)c23)ccc1Oc1ccn2ncnc2c1 ? 1250

----------
- protocolDescription: Concentration of Example 4 in plasma, tumor tissue and brain tissue (NCI-N87 model, day 21)
- Format: in vivo, BALB/c nude mice
- conditionSummary: BALB/c nude, mouse, plasma, 100 mg/kg; day 21, 2 h after last administration; read-out: Drug concentration, plasma
endpoint: concentration at 2 h (µM)
The response must be a number in µM with no trailing unit.

I am curious: what concentration at 2 h value has been reported for Cc1cc(Nc2ncnn3ccc(CN4CCC(N)CC4)c23)ccc1Oc1ccn2ncnc2c1 ? 12.8

----------
- Tested on: BT-474 cell
- protocolDescription: Cell proliferation inhibitory activity, Cell-Titer-Glo, BT-474
- Format: cell-based
- conditionSummary: Homo sapiens, BT-474, 72 h; 3 days incubation
# key: entry, value: pIC50
pIC50 (log units): -log10 of the concentration in mol/L.

Worked examples follow.
compound	pIC50
Cc1cc(Nc2ncnn3ccc(CN4CCCNCC4)c23)ccc1Oc1ccn2ncnc2c1 [Example 5]	7.01
COCC1(N)CCN(Cc2ccn3ncnc(Nc4ccc(Oc5ccn6ncnc6c5)c(C)c4)c23)CC1 [Example 20]	7.06
Cc1cc(Nc2ncnn3ccc(CN4CCC(N)CC4)c23)ccc1Oc1ccn2ncnc2c1 [Example 4]	7.64

// switching to the query compound
Form field - read-out: pIC50; system: BT-474 cell; submitted item: NC1CCN(Cc2ccn3ncnc(Nc4ccc(Oc5ccn6ncnc6c5)c(Cl)c4F)c23)CC1 [Example 32] 7.06

----------
- targetOrTestSystem: CYP2C9 (Homo sapiens (Human), UniProt P11712)
- Sequence (P11712 whole entry): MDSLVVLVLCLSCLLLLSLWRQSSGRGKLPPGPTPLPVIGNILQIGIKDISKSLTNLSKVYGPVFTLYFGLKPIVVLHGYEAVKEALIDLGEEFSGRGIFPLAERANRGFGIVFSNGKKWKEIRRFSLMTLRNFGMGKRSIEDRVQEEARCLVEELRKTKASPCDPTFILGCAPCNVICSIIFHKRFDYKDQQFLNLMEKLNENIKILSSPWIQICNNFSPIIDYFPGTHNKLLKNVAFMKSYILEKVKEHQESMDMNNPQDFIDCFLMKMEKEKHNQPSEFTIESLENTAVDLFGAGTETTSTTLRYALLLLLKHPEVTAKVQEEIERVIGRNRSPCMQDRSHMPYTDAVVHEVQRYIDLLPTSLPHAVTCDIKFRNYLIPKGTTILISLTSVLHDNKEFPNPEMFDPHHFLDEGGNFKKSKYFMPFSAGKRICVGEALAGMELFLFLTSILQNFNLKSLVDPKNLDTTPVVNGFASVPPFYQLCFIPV
- protocolDescription: Inhibition of human liver microsomal cytochrome P450 isoenzyme CYP2C9
- Format: in vitro ADME
- conditionSummary: human liver microsomes
- Experimental: The object of this study was to evaluate the effect of Example 4 on the activities of five isoenzymes (CYP1A2, CYP2C9, CYP2C19, CYP2D6 and CYP3A4) of human liver microsomal cytochrome P450 (CYP) using an in vitro test system. The specific probe substrates of CYP450 isozymes were incubated with human liver microsomes and different concentrations of Example 4, and reduced nicotinamide adenine dinucleotide phosphate (NADPH) was added to initiate the reaction. […]
pIC50: −log10 of the molar value.
endpoint: pIC50

I am curious: what pIC50 value has been reported for Cc1cc(Nc2ncnn3ccc(CN4CCC(N)CC4)c23)ccc1Oc1ccn2ncnc2c1 ? < 4.30

----------
- protocolDescription: Pharmacokinetic properties in mice
- Assay type: in vivo
- conditionSummary: female, Balb/c, plasma; mouse, IV 2 mg/kg
endpoint: clearance (mL/min/kg)
The response must be a number in mL/min/kg with no trailing unit.

I am curious: what clearance value has been reported for Cc1cc(Nc2ncnn3ccc(CN4CCC(N)CC4)c23)ccc1Oc1ccn2ncnc2c1 ? 33

----------
- protocolDescription: Pharmacokinetic properties in rats
- Format: in vivo
- conditionSummary: male, SD; rat plasma, IV 5 mg/kg
endpoint: half-life

I am curious: what half-life value has been reported for Cc1cc(Nc2ncnn3ccc(CN4CCC(N)CC4)c23)ccc1Oc1ccn2ncnc2c1 [Example 4] ? 3.34 h

----------
- protocolDescription: Pharmacokinetic properties in rats
- Format: in vivo
- conditionSummary: male, SD, plasma; rat, IV 5 mg/kg; read-out: Vdss
endpoint: Vd (L/kg)
The response must be a number in L/kg with no trailing unit.

I am curious: what Vd value has been reported for Cc1cc(Nc2ncnn3ccc(CN4CCC(N)CC4)c23)ccc1Oc1ccn2ncnc2c1 [Example 4] ? 5.86

----------
- protocolDescription: Pharmacokinetic properties in mice
- Type: in vivo
- conditionSummary: female, Balb/c; mouse plasma, IV 2 mg/kg
endpoint: half-life (min)
The response must be a number in min with no trailing unit.

I am curious: what half-life value has been reported for Cc1cc(Nc2ncnn3ccc(CN4CCC(N)CC4)c23)ccc1Oc1ccn2ncnc2c1 ? 80.4

----------
- protocolDescription: Pharmacokinetic properties in rats
- Type: in vivo
- conditionSummary: male, SD; rat plasma, PO 50 mg/kg
endpoint: half-life (min)
The response must be a number in min with no trailing unit.

I am curious: what half-life value has been reported for Cc1cc(Nc2ncnn3ccc(CN4CCC(N)CC4)c23)ccc1Oc1ccn2ncnc2c1 [Example 4] ? 234
